Data origin, for the record: paper PMC6132687

Tested on: stem cell and progenitor cell viability
measurementProtocol: Toxicity classification from MTT screening across cell types
cond: based on effects on stem cell and progenitor cell viability
Protocol: The cells were exposed to the test compounds for 24 h and cytotoxicity was quantified with MTT and LDH assays as described previously (Talman et al. [2011]). […] After a 30-min incubation, the reaction was stopped by adding 50 µl of 1 M acetic acid to each well and absorbance was measured at 490 nm using Victor2 plate reader (PerkinElmer, Turku, Finland). […] Absorbance was measured at 550 nm and absorbance at 650 nm was subtracted as background. […]
valueKind: toxicity class (toxic / non-toxic)

Examples with their reported toxicity class (toxic / non-toxic) follow.
{"columns": ["compound", "targetOrTestSystem", "toxicity class (toxic / non-toxic)"],
 "data": [
  ["CCN(CC)c1ccc(NC(=O)c2ccsc2)cc1 [3i-1051]", "stem cell and progenitor cell viability", "non-toxic"],
  ["CCC(=O)N(Cc1ccc(N(CC)CC)cc1)c1c(-c2ccccc2)noc1C [3i-1120]", "stem cell and progenitor cell viability", "toxic"],
  ["CCN(CC)c1ccc(NC(=O)c2cc(C)oc2-c2ccccc2)cc1 [3i-1148]", "stem cell and progenitor cell viability", "toxic"],
  ["CCN(CC)c1ccc(NC(=O)c2c(-n3cccc3)sc(C)c2C)cc1 [3i-1165]", "stem cell and progenitor cell viability", "non-toxic"],
  ["COc1ccc(-c2cc(N)nn2C(=O)c2c(-c3ccccc3)noc2C)cc1 [3i-1229]", "stem cell and progenitor cell viability", "toxic"]
]}

Lab note: CCN(CC)c1ccc(NC(=O)c2c(C)noc2-c2cc(C)on2)cc1 [3i-1047] gave toxicity class (toxic / non-toxic) of non-toxic

Lab note: CCN(CC)c1ccc(NC(=O)c2c(-c3coc(C)n3)noc2C)cc1 [3i-1228] gave toxicity class (toxic / non-toxic) of non-toxic

Lab note: CCN(CC)c1ccc(NC(=O)c2c(-c3ccccc3)noc2C)cc1 [3i-1000] gave toxicity class (toxic / non-toxic) of toxic
